Biological target: CfEcR-DEF mutant M125P (Choristoneura fumiferana, UniProt O77255, M408P)
Sequence (P28702 299-449): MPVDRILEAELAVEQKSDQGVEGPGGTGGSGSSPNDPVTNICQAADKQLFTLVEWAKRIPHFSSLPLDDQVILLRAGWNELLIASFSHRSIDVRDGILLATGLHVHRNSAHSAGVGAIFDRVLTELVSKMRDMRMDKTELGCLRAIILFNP
Sequence (O77255 entry or part of it M408P): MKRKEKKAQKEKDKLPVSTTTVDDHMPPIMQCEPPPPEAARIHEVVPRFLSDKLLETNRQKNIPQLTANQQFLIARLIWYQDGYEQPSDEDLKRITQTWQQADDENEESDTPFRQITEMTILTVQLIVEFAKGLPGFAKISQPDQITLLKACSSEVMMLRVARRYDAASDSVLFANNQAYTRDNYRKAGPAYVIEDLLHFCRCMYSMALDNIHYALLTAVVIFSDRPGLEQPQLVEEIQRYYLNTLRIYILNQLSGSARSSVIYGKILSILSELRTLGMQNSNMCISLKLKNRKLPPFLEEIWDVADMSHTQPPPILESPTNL
Experiment: cell-based
Details: mutant M125P; read-out: EC50
pEC50: −log10 of the molar value.
What pEC50 was measured for each of the following?

Would you kindly share the measured pEC50 for CC(C)CC[C@@H](O)[C@](C)(O)[C@H]1CC[C@@]2(O)C3=CC(=O)[C@@H]4C[C@@H](O)[C@@H](O)C[C@]4(C)[C@H]3CC[C@]12C ? < 4.48

# get_value(readout='pEC50', item= CC(C)(O)CC[C@@H](O)[C@](C)(O)[C@H]1CC[C@@]2(O)C3=CC(=O)[C@@H]4C[C@@H](O)[C@@H](O)C[C@]4(C)[C@H]3CC[C@]12C [20E, 20-hydroxyecdysone] ) < 4.48
